The measured values listed here are drawn from PubChem BioAssay (NCATS).

# Assay Method Text: qHTS of pediatric cancer cell lines to identify multiple opportunities for drug repurposing: Primary screen for NB1643 cells (AID 1347099); also: nearly all actives have a fitted effect of over 50% in size
# Setup Conditions: NB1643 neuroblastoma viability, CellTiter-Glo luminescence, 48 h; series mostly up to 46 µM
Inconclusive results are not listed. Activity calls are given as the source filed them. Calls follow the shape of the dose curve; as a rule, active = well fitted cell-killing curve with a large enough effect; inconclusive = small, poorly fitted or top-dose-only effect; inactive = no such curve, though single readings can be large or run the other way.
Readout Type: outcome

>  <Compound>
CN=C(N)NC(=O)Nc1c(C)cccc1C

>  <Result>
inactive

$$$$
>  <Compound>
COC(=O)c1ccc(NC(C)=O)cc1OC

>  <Result>
inactive

$$$$
>  <Compound>
CC(NN)c1ccccc1 (stereo not drawn)

>  <Result>
inactive

$$$$
>  <Compound>
Oc1ccc(CCNCCCCCCNCCc2ccccc2)cc1O

>  <Result>
inactive

$$$$
>  <Compound>
CC(=O)CC/C=C(\C)CC/C=C(\C)CC/C=C(\C)CCC=C(C)C

>  <Result>
inactive

$$$$
>  <Compound>
CCCCNc1ccc(C(=O)OCCN(CC)CC)cc1

>  <Result>
inactive

$$$$
>  <Compound>
O=C(c1ccco1)N1CCNCC1

>  <Result>
inactive

$$$$
>  <Compound>
CCOc1ccccc1OCC1CNCCO1 (stereo not drawn)

>  <Result>
inactive

$$$$
